- TARGET OF ASSAY: F508delCFTR (Homo sapiens, UniProt P13569, DEL508-508)
- Construct: expressed in transfected cells; host or cells: CFBE41o- human lung-derived epithelial cells (CFBE4lo-F508delCFTR-HRP), doxycycline-inducible
- Sequence (P13569 with tags, fused parts or gaps DEL508-508): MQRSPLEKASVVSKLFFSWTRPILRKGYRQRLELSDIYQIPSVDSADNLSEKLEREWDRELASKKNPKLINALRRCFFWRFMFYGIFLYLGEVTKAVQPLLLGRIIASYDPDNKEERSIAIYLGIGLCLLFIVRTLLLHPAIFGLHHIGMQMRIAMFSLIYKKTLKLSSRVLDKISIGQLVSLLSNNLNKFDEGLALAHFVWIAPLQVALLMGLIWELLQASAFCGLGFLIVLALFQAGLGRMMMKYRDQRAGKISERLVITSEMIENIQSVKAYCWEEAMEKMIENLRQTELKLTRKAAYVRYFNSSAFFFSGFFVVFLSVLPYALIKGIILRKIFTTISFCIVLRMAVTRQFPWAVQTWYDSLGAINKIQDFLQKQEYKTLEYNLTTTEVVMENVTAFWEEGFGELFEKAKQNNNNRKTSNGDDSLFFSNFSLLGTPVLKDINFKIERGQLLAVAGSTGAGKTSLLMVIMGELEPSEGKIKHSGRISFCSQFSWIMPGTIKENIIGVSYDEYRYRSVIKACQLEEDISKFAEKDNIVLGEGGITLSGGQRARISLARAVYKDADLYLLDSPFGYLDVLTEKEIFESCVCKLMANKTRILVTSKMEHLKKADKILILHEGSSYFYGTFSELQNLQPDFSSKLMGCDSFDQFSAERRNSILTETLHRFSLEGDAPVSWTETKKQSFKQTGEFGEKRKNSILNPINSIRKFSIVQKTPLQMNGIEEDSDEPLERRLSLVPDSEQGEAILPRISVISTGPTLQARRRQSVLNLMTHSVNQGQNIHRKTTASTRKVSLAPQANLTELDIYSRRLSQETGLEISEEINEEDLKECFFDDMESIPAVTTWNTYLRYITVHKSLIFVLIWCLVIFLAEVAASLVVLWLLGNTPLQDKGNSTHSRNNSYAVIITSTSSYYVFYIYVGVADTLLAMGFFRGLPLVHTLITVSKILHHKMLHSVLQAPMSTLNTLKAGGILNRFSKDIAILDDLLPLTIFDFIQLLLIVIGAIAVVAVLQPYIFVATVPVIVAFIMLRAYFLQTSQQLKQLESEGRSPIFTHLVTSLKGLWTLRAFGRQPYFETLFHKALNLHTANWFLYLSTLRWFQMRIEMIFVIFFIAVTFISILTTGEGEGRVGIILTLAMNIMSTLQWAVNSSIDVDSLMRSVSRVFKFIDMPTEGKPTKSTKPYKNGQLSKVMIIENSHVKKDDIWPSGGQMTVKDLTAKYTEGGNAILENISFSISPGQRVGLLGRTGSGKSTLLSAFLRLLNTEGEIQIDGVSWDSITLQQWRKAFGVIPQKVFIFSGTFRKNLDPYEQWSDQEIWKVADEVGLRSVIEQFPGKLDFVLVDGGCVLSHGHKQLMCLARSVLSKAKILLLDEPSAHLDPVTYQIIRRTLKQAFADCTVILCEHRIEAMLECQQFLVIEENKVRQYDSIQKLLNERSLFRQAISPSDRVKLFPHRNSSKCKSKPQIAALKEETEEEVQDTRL
- ASSAY METHOD TEXT: Cell Surface Expression-Horse Radish Peroxidase (CSE-HRP) Assay;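 further: percent of the 2 µM on-plate positive control corrector response above DMSO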
- Assay type: cell-based
- TEST SETTINGS: CSE-HRP; without co-corrector; maximum at any tested concentration, normalized to on-plate positive control; read-out: Maximum % activity (without co-corrector)
REPORTED PROPERTY: Emax

[[record]]
compound = "COc1ccc(CN[C@H]2[C@H](C(C)(C)C)[C@@H](C(=O)O)N(C(=O)C3CCCCC3)[C@H]2c2ccccc2)cc1C(F)(F)F"
reported_measurement = "< 100%"

[[record]]
compound = "COc1ccc(F)cc1CN[C@@H]1[C@@H](C(C)(C)C)[C@H](C(=O)O)N(C(=O)OC(C)C)[C@@H]1c1ccccc1 (racemic)"
reported_measurement = "100 to 200%"

[[record]]
compound = "COc1ccc(-c2cccnc2OC)cc1CN[C@H]1[C@H](C(C)(C)C)[C@@H](C(=O)O)N(C(=O)C2CCCCC2)[C@H]1c1ccccc1"
reported_measurement = "100 to 200%"

[[record]]
compound = "COc1ncc(Br)cc1CN[C@H]1[C@H](C(C)(C)C)[C@@H](C(=O)O)N(C(=O)C2CCCCC2)[C@H]1c1ccccc1"
reported_measurement = "100 to 200%"

[[record]]
compound = "COc1ccc(C(C)(C)C)cc1CN[C@H]1[C@H](C(C)(C)C)[C@@H](C(=O)O)N(C(=O)C(OC)C(C)(C)C)[C@H]1c1ccccc1 (stereo partly drawn) [II-298]"
reported_measurement = "100 to 200%"

[[record]]
compound = "COc1ccc(C(F)(F)F)cc1OCCN[C@H]1[C@H](C(C)(C)C)[C@@H](C(=O)O)N(C(=O)OC(C)C)[C@H]1c1cccnc1OC(C)C"
reported_measurement = "100 to 200%"

[[record]]
compound = "COc1ncc(C2CCC2)cc1CN[C@H]1[C@H](C(C)(C)C)[C@@H](C(=O)O)N(C(=O)[C@@H]2CCCCO2)[C@H]1c1ccccc1C1CC1"
reported_measurement = "> 200%"

[[record]]
compound = "COc1ccc(C(C)(C)C)cc1CN[C@H]1[C@H](C(C)(C)C)[C@@H](C(=O)O)N(C(=O)C2Cc3ccccc3CO2)[C@H]1c1ccccc1 (stereo partly drawn)"
reported_measurement = "> 200%"

[[record]]
compound = "COc1ccc(-c2cccnc2C)cc1CN[C@H]1[C@H](C(C)(C)C)[C@@H](C(=O)O)N(C(=O)C2CCCCC2)[C@H]1c1ccccc1"
reported_measurement = "< 100%"

[[record]]
compound = "COc1cc(C(F)(F)F)ccc1CN[C@@H]1[C@@H](C(C)(C)C)[C@H](C(=O)O)N(C(=O)OC(C)C)[C@@H]1c1ccccc1N(C)C (racemic)"
reported_measurement = "100 to 200%"


Item COc1ccc(C(F)(F)F)cc1CN[C@H]1[C@H](C(C)(C)C)[C@@H](C(=O)O)N(C(=O)[C@@H](C)OC)[C@H]1c1ccccc1 has what recorded Emax?
100 to 200%

Then CC(C)(C)[C@H]1[C@H](NCc2cc(Cl)ccc2OCC2CC2)[C@H](c2ccccc2)N(C(=O)C2CCCCC2)[C@@H]1C(=O)O ?
< 100%

Then COc1ccc(C#N)cc1CN[C@@H]1[C@@H](C(C)(C)C)[C@H](C(=O)O)N(C(=O)C2CCCCC2)[C@@H]1c1ccccc1 (racemic) ?
< 100%

Cited source for all entries: patent US20180099931A1
